Where these numbers come from: the supplement of paper PMC8617591

# Tested on: Mycobacterium tuberculosis Erdman (autoluminescent)
# Test protocol: total FIC90 (Loewe) at 90% inhibition, three-drug combination (log2); higher = more antagonistic
# Test settings: in vitro model: cholesterol 0.05 mM; time point: terminal (~4-5 doublings, model-specific)
Measured endpoint: total FIC90

COc1nc2ccc(Br)cc2cc1[C@@H](c1ccccc1)[C@@](O)(CCN(C)C)c1cccc2ccccc12 [bedaquiline] + CC(C)/N=c1\cc2n(-c3ccc(Cl)cc3)c3ccccc3nc-2cc1Nc1ccc(Cl)cc1 [clofazimine] + NNC(=O)c1ccncc1 [isoniazid] :: -0.22
COc1nc2ccc(Br)cc2cc1[C@@H](c1ccccc1)[C@@](O)(CCN(C)C)c1cccc2ccccc12 [bedaquiline] + CC(C)/N=c1\cc2n(-c3ccc(Cl)cc3)c3ccccc3nc-2cc1Nc1ccc(Cl)cc1 [clofazimine] + CC(=O)NC[C@H]1CN(c2ccc(N3CCOCC3)c(F)c2)C(=O)O1 [linezolid] :: -0.783
CC[C@@H](CO)NCCN[C@@H](CC)CO [ethambutol] + NNC(=O)c1ccncc1 [isoniazid] + COc1c(N2C[C@@H]3CCCN[C@@H]3C2)c(F)cc2c(=O)c(C(=O)O)cn(C3CC3)c12 :: 0.826
NNC(=O)c1ccncc1 [isoniazid] + CC(=O)NC[C@H]1CN(c2ccc(N3CCOCC3)c(F)c2)C(=O)O1 [linezolid] + CO[C@H]1/C=C/O[C@@]2(C)Oc3c(C)c(O)c4c(O)c(c(/C=N/N5CCN(C6CCCC6)CC5)c(O)c4c3C2=O)NC(=O)/C(C)=C\C=C\[C@H](C)[C@H](O)[C@@H](C)[C@@H](O)[C@@H](C)[C@H](OC(C)=O)[C@@H]1C [rifapentine] :: 0.792

Okay, now this molecule:
-- ask Name the recorded total FIC90 of the item CC(C)/N=c1\cc2n(-c3ccc(Cl)cc3)c3ccccc3nc-2cc1Nc1ccc(Cl)cc1 [clofazimine] + NNC(=O)c1ccncc1 [isoniazid] + COc1c(N2C[C@@H]3CCCN[C@@H]3C2)c(F)cc2c(=O)c(C(=O)O)cn(C3CC3)c12 [moxifloxacin] in your answer.
-- reply 0.0839

---

# System: Mycobacterium tuberculosis Erdman (autoluminescent)
# Test protocol: FIC90 (Loewe) at 90% inhibition (log2); higher = more antagonistic
# Test settings: in vitro model: butyrate; time point: terminal (~4-5 doublings, model-specific)
Measured FIC90 values are reported for all entries that follow.
Number only, please.

Field: example entries. Status: answers known.
COc1nc2ccc(Br)cc2cc1[C@@H](c1ccccc1)[C@@](O)(CCN(C)C)c1cccc2ccccc12 [bedaquiline] + CO[C@H]1/C=C/O[C@@]2(C)Oc3c(C)c(O)c4c(O)c(c(/C=N/N5CCN(C)CC5)c(O)c4c3C2=O)NC(=O)/C(C)=C\C=C\[C@H](C)[C@H](O)[C@@H](C)[C@@H](O)[C@@H](C)[C@H](OC(C)=O)[C@@H]1C [rifampicin] :: 0.429
CC[C@@H](CO)NCCN[C@@H](CC)CO [ethambutol] + COc1c(N2C[C@@H]3CCCN[C@@H]3C2)c(F)cc2c(=O)c(C(=O)O)cn(C3CC3)c12 :: 0.0888
CC(C)/N=c1\cc2n(-c3ccc(Cl)cc3)c3ccccc3nc-2cc1Nc1ccc(Cl)cc1 [clofazimine] + CC[C@@H](CO)NCCN[C@@H](CC)CO [ethambutol] :: 0.104
COc1nc2ccc(Br)cc2cc1[C@@H](c1ccccc1)[C@@](O)(CCN(C)C)c1cccc2ccccc12 [bedaquiline] + CO[C@H]1/C=C/O[C@@]2(C)Oc3c(C)c(O)c4c(O)c(c(/C=N/N5CCN(C6CCCC6)CC5)c(O)c4c3C2=O)NC(=O)/C(C)=C\C=C\[C@H](C)[C@H](O)[C@@H](C)[C@@H](O)[C@@H](C)[C@H](OC(C)=O)[C@@H]1C [rifapentine] :: 0.362
COc1c(N2C[C@@H]3CCCN[C@@H]3C2)c(F)cc2c(=O)c(C(=O)O)cn(C3CC3)c12 [moxifloxacin] + NC(=O)c1cnccn1 [pyrazinamide] :: 0.416

-- ask Name the recorded FIC90 of the item CC(=O)NC[C@H]1CN(c2ccc(N3CCOCC3)c(F)c2)C(=O)O1 [linezolid] + CO[C@H]1/C=C/O[C@@]2(C)Oc3c(C)c(O)c4c(O)c(c(/C=N/N5CCN(C6CCCC6)CC5)c(O)c4c3C2=O)NC(=O)/C(C)=C\C=C\[C@H](C)[C@H](O)[C@@H](C)[C@@H](O)[C@@H](C)[C@H](OC(C)=O)[C@@H]1C in your answer.
-- reply -0.553

-- ask Name the recorded FIC90 of the item COc1nc2ccc(Br)cc2cc1[C@@H](c1ccccc1)[C@@](O)(CCN(C)C)c1cccc2ccccc12 [bedaquiline] + CC(=O)NC[C@H]1CN(c2ccc(N3CCOCC3)c(F)c2)C(=O)O1 [linezolid] in your answer.
-- reply 0.0422

-- ask Name the recorded FIC90 of the item NNC(=O)c1ccncc1 [isoniazid] + O=[N+]([O-])c1cn2c(n1)OC[C@@H](OCc1ccc(OC(F)(F)F)cc1)C2 [pretomanid] in your answer.
-- reply 0.403

-- ask Name the recorded FIC90 of the item NNC(=O)c1ccncc1 [isoniazid] + CO[C@H]1/C=C/O[C@@]2(C)Oc3c(C)c(O)c4c(O)c(c(/C=N/N5CCN(C)CC5)c(O)c4c3C2=O)NC(=O)/C(C)=C\C=C\[C@H](C)[C@H](O)[C@@H](C)[C@@H](O)[C@@H](C)[C@H](OC(C)=O)[C@@H]1C [rifampicin] in your answer.
-- reply 0.0846

-- ask Name the recorded FIC90 of the item NNC(=O)c1ccncc1 [isoniazid] + COc1c(N2C[C@@H]3CCCN[C@@H]3C2)c(F)cc2c(=O)c(C(=O)O)cn(C3CC3)c12 [moxifloxacin] in your answer.
-- reply -0.0232

-- ask Name the recorded FIC90 of the item CC(C)/N=c1\cc2n(-c3ccc(Cl)cc3)c3ccccc3nc-2cc1Nc1ccc(Cl)cc1 [clofazimine] + CO[C@H]1/C=C/O[C@@]2(C)Oc3c(C)c(O)c4c(O)c(c(/C=N/N5CCN(C6CCCC6)CC5)c(O)c4c3C2=O)NC(=O)/C(C)=C\C=C\[C@H](C)[C@H](O)[C@@H](C)[C@@H](O)[C@@H](C)[C@H](OC(C)=O)[C@@H]1C [rifapentine] in your answer.
-- reply 0.504
